These entries and their values trace back to paper PMC7015555.

# target-or-system: TTR (Homo sapiens, UniProt P02766)
# assay-details: FITC-T4 TTR competitive binding assay
# condition: IC20 of T4 / IC20 of compound (Equation 14)
Note to self: values exactly at 0.1 are 1. So REP (relative potency compared to T4) at or above 0.1 is 1, below is 0.

Example entries and their recorded answers appear below.
# compound, target-or-system, qualitative-label
measured = [
    ("CC(C)(c1cc(Br)c(O)c(Br)c1)c1cc(Br)c(O)c(Br)c1 [TBBPA, tetrabromo-bisphenol-A]", "TTR (Homo sapiens, UniProt P02766)", 1),
    ("NS(=O)(=O)C(F)(F)C(F)(F)C(F)(F)C(F)(F)C(F)(F)C(F)(F)C(F)(F)C(F)(F)F [FOSA, perfluorooctane sulfonamide]", "TTR (Homo sapiens, UniProt P02766)", 1),
]

Could you please find out whether Clc1cc(Cl)c(-c2cc(Cl)c(Cl)cc2Cl)cc1Cl [CB-153, 2,2ʹ,4,4ʹ,5,5ʹ-hexachlorobiphenyl] has REP (relative potency compared to T4) that meets 0.1 or exceeds it?
1

Could you please find out whether O=C(O)C(F)(F)C(F)(F)C(F)(F)C(F)(F)C(F)(F)C(F)(F)C(F)(F)C(F)(F)C(F)(F)C(F)(F)F [PFUnDA, perfluoroundecanoic acid] has REP (relative potency compared to T4) that meets 0.1 or exceeds it?
0

Could you please find out whether O=S(=O)(O)C(F)(F)C(F)(F)C(F)(F)C(F)(F)F [PFBS, perfluorobutane sulfonic acid] has REP (relative potency compared to T4) that meets 0.1 or exceeds it?
0

* * *

Provide the reported pIC50 of each item.
# target-or-system: TTR (Homo sapiens)
# assay-details: FITC-T4 TTR competitive binding assay
# condition: read-out: IC50
Give bare numbers, as −log10 of the molar value.

# compound, target-or-system, pIC50
rows = [
    ("Brc1ccc(Oc2ccc(Br)cc2Br)c(Br)c1", "TTR (Homo sapiens)", 5.89),
    ("CCCOC(=O)c1ccc(O)cc1 [Propylparaben, propyl 4-hydroxybenzoate]", "TTR (Homo sapiens)", 4.72),
    ("NS(=O)(=O)C(F)(F)C(F)(F)C(F)(F)C(F)(F)C(F)(F)C(F)(F)C(F)(F)C(F)(F)F [FOSA, perfluorooctane sulfonamide]", "TTR (Homo sapiens)", 6.14),
    ("O=C(O)C(F)(F)C(F)(F)C(F)(F)C(F)(F)C(F)(F)C(F)(F)F", "TTR (Homo sapiens)", 5.92),
]

For the compound "Oc1c(Br)cc(Br)cc1Br" , give its reported pIC50.
7.54

* * *

# target-or-system: UniProtKB P02766
# assay-details: FITC-T4 TTR competitive binding assay
# condition: individual compounds; 30 nM TTR, 110 nM FITC-T4, 2 h at 4°C, pH 8.0; — = 50% inhibition level not reached (footnote g); read-out: IC50
Provide the reported IC50 of each item.

# compound, target-or-system, IC50
data = [
    ("O=C(O)C(F)(F)C(F)(F)C(F)(F)C(F)(F)C(F)(F)C(F)(F)C(F)(F)C(F)(F)C(F)(F)C(F)(F)F [PFUnDA, perfluoroundecanoic acid]", "UniProtKB P02766", "3100 nM"),
    ("O=C(O)C(F)(F)C(F)(F)C(F)(F)C(F)(F)C(F)(F)C(F)(F)C(F)(F)C(F)(F)C(F)(F)F [PFDA, perfluorodecanoic acid]", "UniProtKB P02766", "5400 nM"),
    ("Oc1cc(Br)cc(Br)c1Oc1ccc(Br)cc1Br [6-OH-BDE-47, 6-OH-2,2ʹ,4,4ʹ-tetrabromodiphenyl ether]", "UniProtKB P02766", "98 nM"),
]

Give me IC50 for each of these compounds, listed below.
1. Oc1c(Cl)c(Cl)c(-c2cc(Cl)c(Cl)cc2Cl)c(Cl)c1Cl [4-OH-CB-187]
2. CC(C)(c1cc(Br)c(O)c(Br)c1)c1cc(Br)c(O)c(Br)c1 [TBBPA, tetrabromo-bisphenol-A]
3. Oc1cc(Oc2ccc(Br)cc2Br)c(Br)cc1Br [5-OH-BDE-47, 5-OH-2,2ʹ,4,4ʹ-tetrabromodiphenyl ether]

1. 17 nM
2. 34 nM
3. 27 nM
